# reported Population Hoechst High Intensity Objects (%); entries follow
# System: U2OS
# MEASUREMENT_NOTES: Multiplex assay against U2OS
# Type: toxicity, cell-based
# EXPERIMENTAL_SETUP: human, 48 h, 10 µM, compound concentration 10 uM, replicate 2
Entry format: amount then unit.

Recorded Population Hoechst High Intensity Objects (%), per entry:
COMPOUND: C[C@@H]1CC(=O)Nc2cccc(-c3ccc4c(c3)c(-c3cnn(C)c3)nn4C)c2N1
TARGET_ENTITY: U2OS
MEAS_VALUE: 4%
//
COMPOUND: Cl.Cl.OCCOCCN1CCN(C(c2ccccc2)c2ccc(Cl)cc2)CC1 (stereo not drawn) [HYDROXYZINE HYDROCHLORIDE]
TARGET_ENTITY: U2OS
MEAS_VALUE: 5%

Problem: Query: Population Hoechst High Intensity Objects (%); subject: CCCCCCNC(=O)Nc1ccc(S(=O)(=O)Nc2ccc(CCNC[C@H](O)COc3ccc(O)cc3)cc2)cc1
Result: 1%

Problem: // repeat for Cc1c(Cc2ccc3ccccc3n2)c2cc(F)ccc2n1CC(=O)O and report
Result: 2%

Problem: // repeat for COC(c1ccccc1)(c1ccccc1)[C@H](Oc1nc(C)cc(C)n1)C(=O)O and report
Result: 0%
